Record set of IC50 for target or system Cathepsin L (Homo sapiens (Human), UniProt P07711).
Write it as a number; the unit µM goes unstated.

Record COc1ccc2c(c1)C(=O)N[C@H](C(=O)NC1(C#N)CC1)Cc1ccc(c(Cl)c1)OCCCCO2 ; system Cathepsin L (Homo sapiens (Human), UniProt P07711); IC50 = 0.0104

Here N#CC1(NC(=O)[C@@H]2Cc3ccc(c(Cl)c3)OCCCCOc3ccccc3C(=O)N2)CC1 was tested on Cathepsin L (Homo sapiens (Human), UniProt P07711), and its IC50 came to 0.0962

Short answer on Cathepsin L (Homo sapiens (Human), UniProt P07711) for N#CC1(NC(=O)[C@@H]2Cc3ccc(c(I)c3)OC/C=C/COc3ccccc3C(=O)N2)CC1 [Example 26] , IC50: 0.139

Short answer on Cathepsin L (Homo sapiens (Human), UniProt P07711) for N#CC1(NC(=O)[C@@H]2Cc3ccc(c(Cl)c3)OCCCCOc3ccc(C4CNC4)cc3C(=O)N2)CC1 , IC50: 0.0031

====

Recorded IC50 values (Cathepsin L (Homo sapiens (Human))) are given below.
All answers are understood in nM, so give the number only.

| molecule | unit_name | reported |
| --- | --- | --- |
| CC1(C)CC2C(=O)N[C@H](C(=O)NC3(C#N)CC3)Cc3ccc(c(Cl)c3)OC/C=C/CCN2C1 (mixture of isomers) | nM | 168 |

Short answer on Cathepsin L (Homo sapiens (Human)) for N#CC1(NC(=O)[C@@H]2Cc3ccc(c(Cl)c3)OC/C=C\COc3ccc(F)c(F)c3C(=O)N2)CC1 , IC50: 54

Hey, Cathepsin L (Homo sapiens (Human)) data for N#CC1(NC(=O)[C@@H]2Cc3ccc(cc3)OC/C=C/CCc3ccccc3C(=O)N2)CC1 : IC50 came out at 77

The measured IC50 that COc1ccc2c(c1)CCCCCOc1ccc(cc1Cl)C[C@@H](C(=O)NC1(C#N)CC1)NC2=O showed for Cathepsin L (Homo sapiens (Human)) is 118

Given the molecule N#CC1(NC(=O)[C@@H]2Cc3ccc(c(Cl)c3)OC/C=C/COc3c(Cl)cc(F)cc3C(=O)N2)CC1 and test system Cathepsin L (Homo sapiens (Human)), the measured IC50 is 139

Item N#CC1(NC(=O)[C@@H]2Cc3ccc(c(Cl)c3)OCCCCOc3ccc(C(F)(F)F)cc3C(=O)N2)CC1 ; assay system Cathepsin L (Homo sapiens (Human)); IC50 reported as 9

// molecule COc1ccc2c(c1)C(=O)N[C@H](C(=O)NC1(C#N)CC1)Cc1ccc(c(Cl)c1)OC/C=C/CO2 , assay Cathepsin L (Homo sapiens (Human)), IC50 value: 11.4

The observed IC50 for N#CC1(NC(=O)[C@@H]2Cc3ccc(cc3)OC/C=C/COc3ccccc3C(=O)N2)CC1 when tested with Cathepsin L (Homo sapiens (Human)) stands at 88.5

Reported IC50 (Cathepsin L (Homo sapiens (Human))) for entry N#CC1(NC(=O)[C@@H]2Cc3ccc(c(Cl)c3)OC/C=C/CCc3ccccc3C(=O)N2)CC1 is 9.6

====

Target: UniProtKB P07711
endpoint: IC50 (nM)
Express it in nM; write the number only.

| compound | endpoint | reported |
| --- | --- | --- |
| CC(C)(C)OC(=O)N1CC(c2ccc3c(c2)C(=O)N[C@H](C(=O)NC2(C#N)CC2)Cc2ccc(c(Cl)c2)OCCCCO3)C1 | IC50 | 25.5 |
| N#CC1(NC(=O)[C@@H]2Cc3ccc(c(Cl)c3)OCCCCOc3ccc(F)c(F)c3C(=O)N2)CC1 | IC50 | 13.5 |
| N#CC1(NC(=O)[C@@H]2Cc3ccc(c(I)c3)OC/C=C/COc3ccccc3C(=O)N2)CC1 [Example 24] | IC50 | 164 |

IC50 reported for this compound N#CC1(NC(=O)[C@@H]2Cc3ccc(c(Cl)c3)OC/C=C/COc3ccc(Cl)cc3C(=O)N2)CC1 : 10.3
